Method: Bioavailability test, oral suspensions in beagle dogs
Assay type: in vivo
Test settings: dog, oral suspension in CMC-Na, 5 mg/kg (as compound of Formula I), plasma, read-out: Tmax

- Molecular string: "C=CC(=O)N1CCC(Nc2cc3c(Nc4ccc(F)c(Cl)c4)ncnc3cc2OC)CC1"
  Tmax, h: 3.17

----------
Method: Bioavailability test, oral suspensions in beagle dogs
Assay type: in vivo
Test settings: dog, oral suspension in CMC-Na, 5 mg/kg (as compound of Formula I), plasma concentration of compound of Formula I by LC-MS, read-out: Cmax
Procedure: Study procedure: Fifteen beagle dogs (7.4˜9.4 kg body weight) were randomly divided into 5 groups, and administered orally suspensions of the compound of Formula I, the maleate, citrate, oxalate and acetate thereof (calculated according to the amount of the compound of Formula I) in CMC-Na (carboxymethylcellulose sodium) at a dosage of 5 mg/kg body weight, respectively. […]

- Molecular string: "C=CC(=O)N1CCC(Nc2cc3c(Nc4ccc(F)c(Cl)c4)ncnc3cc2OC)CC1"
  Cmax / ng/mL: 2820

----------
Method: Bioavailability test, oral suspensions in beagle dogs
Format: in vivo
Test settings: dog, oral suspension in CMC-Na, 5 mg/kg (as compound of Formula I), plasma, read-out: CL/F (converted)

- Compound: "C=CC(=O)N1CCC(Nc2cc3c(Nc4ccc(F)c(Cl)c4)ncnc3cc2OC)CC1 [Example 1]"
  CL/F [mL/min/kg]: 77.8
